# EXPERIMENT NOTES: Half-lives and pharmacokinetic parameters of polypeptides vs HM-1; also: test concentration or dose not given here
# CONDITIONS USED: in vivo, T1/2β (half-life)
Peptide text beside a SMILES is read from it. * marks the point of attachment. X70 = O=C1C=CC(=O)N1CCOCCOCCOCCCC(=O)*; X51 = O=C1C=CC(=O)N1c1ccccc1CC(=O)*; X82 = O=C1C=CC(=O)N1CCCCCCCCC(=O)*
Known half-life of a selection of compounds
Write the numeric value and follow it with the unit.

Recorded half-life of C[C@H](NC(=O)CNC(=O)[C@H](CCCNC(=N)N)NC(=O)CCCCCCCCN1C(=O)C=CC1=O)C(=O)N[C@@H](CC(=O)O)C(=O)N[C@@H](CCCNC(=N)N)C(=O)N[C@@H](C)C(=O)NCC(=O)NCC(=O)NCC(=O)NCC(=O)N[C@@H](CCCNC(=N)N)C(=O)NCC(=O)N[C@@H](CC(=O)O)C(=O)O [X8] (X82-RGADRAGGGGRGD-OH) , please.
34.7 h

Please look up its half-life: C[C@H](NC(=O)CNC(=O)[C@H](CCCNC(=N)N)NC(=O)Cc1ccccc1N1C(=O)C=CC1=O)C(=O)N[C@@H](CC(=O)O)C(=O)N[C@@H](CCCNC(=N)N)C(=O)N[C@@H](C)C(=O)NCC(=O)NCC(=O)NCC(=O)NCC(=O)N[C@@H](CCCNC(=N)N)C(=O)NCC(=O)N[C@@H](CC(=O)O)C(=O)O [X13] (X51-RGADRAGGGGRGD-OH)
41.6 h

Next:
May I ask what half-life has been recorded for C[C@H](NC(=O)CNC(=O)[C@H](CCCNC(=N)N)NC(=O)CCCOCCOCCOCCN1C(=O)C=CC1=O)C(=O)N[C@@H](CC(=O)O)C(=O)N[C@@H](CCCNC(=N)N)C(=O)N[C@@H](C)C(=O)NCC(=O)NCC(=O)NCC(=O)NCC(=O)N[C@@H](CCCNC(=N)N)C(=O)NCC(=O)N[C@@H](CC(=O)O)C(=O)O [X65] (X70-RGADRAGGGGRGD-OH) ?
39.5 h

These measurements were taken from patent US20200270309A1.
